Target: UniProt P51658
Sequence (P51658 whole entry): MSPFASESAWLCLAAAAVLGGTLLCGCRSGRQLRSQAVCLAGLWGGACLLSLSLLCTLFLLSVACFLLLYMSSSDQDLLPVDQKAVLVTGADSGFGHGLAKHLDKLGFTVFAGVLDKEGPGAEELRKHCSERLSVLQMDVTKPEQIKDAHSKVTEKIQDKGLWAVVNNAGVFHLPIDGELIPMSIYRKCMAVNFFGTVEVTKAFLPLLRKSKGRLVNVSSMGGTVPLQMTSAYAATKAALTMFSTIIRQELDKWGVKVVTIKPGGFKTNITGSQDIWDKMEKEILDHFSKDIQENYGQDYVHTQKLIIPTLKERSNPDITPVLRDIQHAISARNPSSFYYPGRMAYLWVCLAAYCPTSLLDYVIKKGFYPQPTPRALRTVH
Measure Name: pIC50
// pIC50 here means minus log10 of the molar concentration (mol/L)

> print(dat)
                                 mol.smiles  subject.of.test  assay.result
1  O=C(c1ccc(-c2cccc(NS(=O)(=O)c3ccccc3)c2)s1)c1c(F)ccc(O)c1Cl   UniProt P51658          8.57
2  O=C(c1ccc(-c2cccc(NS(=O)(=O)c3ccc(Cl)cc3)c2)s1)c1cc(F)c(F)c(O)c1F   UniProt P51658          8.21
3  O=C(c1ccc(-c2cccc(NS(=O)(=O)c3ccc(F)cc3)c2)s1)c1cc(F)c(F)c(O)c1F   UniProt P51658          7.56

Entry O=C(c1ccc(-c2cccc(NS(=O)(=O)c3ccccc3)c2)s1)c1cccc(O)c1Cl has what pIC50?
8.57
